Test system: cerebellar granule cells
Assay: Intracellular amino acids in primary cultures of cerebellar granule cells
Format: cell-based
Conditions: primary cultures of cerebellar granule cells; read-out: IC50, lowering of cellular glutamate
Method: After 5 h incubation, the cultures were washed twice with phosphate buffered saline, extracted with perchloric acid and analyzed for amino acids as described for FIG. 5A. […] Results are shown in FIGS. 6A-B. Data are expressed as the ratio of Glu, Asp, or GABA to Ala (neurons and astrocytes) or Ser (astrocytes).
pIC50: −log10 of the molar value.
measure: pIC50

**Q:** Identify measured pIC50 corresponding to `O=C(Cc1ccccc1)Nc1nnc(CCSCCc2nnc(NC(=O)Cc3ccccc3)s2)s1`
**A:** 7.00 to 7.30

###

Target: human kidney glutaminase (Homo sapiens)
Construct: cell lysate
Sequence (O94925 55-669): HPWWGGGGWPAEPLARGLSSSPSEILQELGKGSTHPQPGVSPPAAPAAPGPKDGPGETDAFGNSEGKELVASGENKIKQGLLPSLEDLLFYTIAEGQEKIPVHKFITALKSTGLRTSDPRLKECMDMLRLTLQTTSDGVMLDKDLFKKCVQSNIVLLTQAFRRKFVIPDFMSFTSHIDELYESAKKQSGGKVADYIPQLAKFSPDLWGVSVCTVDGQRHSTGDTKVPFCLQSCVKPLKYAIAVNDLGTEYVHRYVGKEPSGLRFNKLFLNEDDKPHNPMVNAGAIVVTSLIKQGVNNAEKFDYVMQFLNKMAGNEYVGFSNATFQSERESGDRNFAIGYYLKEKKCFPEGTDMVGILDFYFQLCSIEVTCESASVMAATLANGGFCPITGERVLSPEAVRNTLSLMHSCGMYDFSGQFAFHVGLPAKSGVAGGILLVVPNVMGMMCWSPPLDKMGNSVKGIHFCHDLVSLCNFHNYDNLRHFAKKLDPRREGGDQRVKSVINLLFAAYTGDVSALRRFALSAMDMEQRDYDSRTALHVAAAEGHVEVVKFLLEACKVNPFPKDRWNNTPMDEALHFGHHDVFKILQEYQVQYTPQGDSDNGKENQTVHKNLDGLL
Experiment: Glutaminase inhibition: cell free assay
measure: pIC50
In simple prose, pIC50 is minus the logarithm base ten of a concentration in moles per litre.

# annotated cases, reported pIC50 shown
[
  {
    "compound": "Cc1cccc(C(=O)Nc2nnc(CCSCCc3nnc(NC(=O)c4cccc(C)c4)s3)s2)c1 [SNX-1831]",
    "pIC50": 5.95
  },
  {
    "compound": "O=C(Nc1nnc(CCSCCc2nnc(NC(=O)c3cccs3)s2)s1)c1cccs1 [SNX-1837]",
    "pIC50": 6.41
  },
  {
    "compound": "O=C(Nc1nnc(CCSCCc2nnc(NC(=O)c3ccco3)s2)s1)c1ccco1 [SNX-1836]",
    "pIC50": 5.95
  },
  {
    "compound": "CCOC(=O)Nc1nnc(CCSCCc2nnc(NC(=O)OCC)s2)s1 [SNX-1852]",
    "pIC50": 5.75
  },
  {
    "compound": "CC(C)(C)C(=O)Nc1nnc(CCSCCc2nnc(NC(=O)C(C)(C)C)s2)s1 [SNX-1851]",
    "pIC50": 5.78
  }
]

**Q:** Identify measured pIC50 corresponding to O=C(Nc1nnc(CCSCCc2nnc(NC(=O)c3ccccc3)s2)s1)c1ccccc1 [SNX-1830]
**A:** 5.97

**Q:** Identify measured pIC50 corresponding to COc1ccc(C(=O)Nc2nnc(CCSCCc3nnc(NC(=O)c4ccc(OC)cc4)s3)s2)cc1 [SNX-1832]
**A:** 6.34

**Q:** Identify measured pIC50 corresponding to COc1ccccc1C(=O)Nc1nnc(CCSCCc2nnc(NC(=O)c3ccccc3OC)s2)s1 [SNX-1855]
**A:** 5.31
